// concentration at 12 h lookup, one value per entry
- method: Plasma and tumor compound concentrations in CT26 tumor-bearing mice (LC-MS/MS)
- Format: in vivo, BALB/c mice
- condition.summary: BALB/c, mouse, plasma, intravenous; 0.375 mg/kg single i.v., 12 h (Table 4); read-out: Plasma Conc.
Where a name gives a salt, the structure may show the parent alone.
Response body: numeric value in nM, unit text excluded.

Field: example entries. Status: answers known.
# compound, readout.label, readout.value
rows = [
    ("CCn1nc(C)cc1C(=O)Nc1nc2cc(C(N)=O)cc3c2n1C/C=C/Cn1c(NC(=O)c2cc(C)nn2CC)nc2cc(C(=O)NCCCn4cc(C(=O)O)cn4)cc(c21)OCCCO3 [Compound 8, sodium salt]", "concentration at 12 h", 20),
    ("CCn1nc(C)cc1C(=O)Nc1nc2cc(C(N)=O)cc3c2n1C/C=C/Cn1c(NC(=O)c2cc(C)nn2CC)nc2cc(C(=O)N[C@H]4CC[C@H](c5nnn[nH]5)CC4)cc(c21)OCCCO3 [Compound 6, sodium salt]", "concentration at 12 h", 50),
    ("CCn1nc(C)cc1C(=O)Nc1nc2cc(C(N)=O)cc3c2n1C/C=C/Cn1c(NC(=O)c2cc(C)nn2CC)nc2cc(C(=O)N[C@H]4CC[C@H](C(=O)O)CC4)cc(c21)OC[C@@H](N1C2CCC1COC2)CO3 [Compound 14, sodium salt]", "concentration at 12 h", 70),
]

Now consider the entry below.
QUERY: Name the recorded concentration at 12 h of the item CCn1nc(C)cc1C(=O)Nc1nc2cc(C(N)=O)cc3c2n1C/C=C/Cn1c(NC(=O)c2cc(C)nn2CC)nc2cc(C(=O)N[C@H]4CC[C@H](c5nnn[nH]5)CC4)cc(c21)OC[C@@H](N1C2CCC1COC2)CO3 [Compound 12, sodium salt] in your answer.
RESULT: 90
